experimental_target: T1, recombinant human IGF1R extracellular fragment IGF1R^933-His (human, UniProt P08069 31-933)
T1 construct: It holds the full alpha subunit, the furin site RKRR and most of the extracellular part of the beta subunit; Amine-coupled to a CM5 chip for SPR; also called recombinant extracellular portion of the human IGF1R fragment; not shown: His tag from pCDN4/myc-His vector
T1 sequence (P08069 31-933): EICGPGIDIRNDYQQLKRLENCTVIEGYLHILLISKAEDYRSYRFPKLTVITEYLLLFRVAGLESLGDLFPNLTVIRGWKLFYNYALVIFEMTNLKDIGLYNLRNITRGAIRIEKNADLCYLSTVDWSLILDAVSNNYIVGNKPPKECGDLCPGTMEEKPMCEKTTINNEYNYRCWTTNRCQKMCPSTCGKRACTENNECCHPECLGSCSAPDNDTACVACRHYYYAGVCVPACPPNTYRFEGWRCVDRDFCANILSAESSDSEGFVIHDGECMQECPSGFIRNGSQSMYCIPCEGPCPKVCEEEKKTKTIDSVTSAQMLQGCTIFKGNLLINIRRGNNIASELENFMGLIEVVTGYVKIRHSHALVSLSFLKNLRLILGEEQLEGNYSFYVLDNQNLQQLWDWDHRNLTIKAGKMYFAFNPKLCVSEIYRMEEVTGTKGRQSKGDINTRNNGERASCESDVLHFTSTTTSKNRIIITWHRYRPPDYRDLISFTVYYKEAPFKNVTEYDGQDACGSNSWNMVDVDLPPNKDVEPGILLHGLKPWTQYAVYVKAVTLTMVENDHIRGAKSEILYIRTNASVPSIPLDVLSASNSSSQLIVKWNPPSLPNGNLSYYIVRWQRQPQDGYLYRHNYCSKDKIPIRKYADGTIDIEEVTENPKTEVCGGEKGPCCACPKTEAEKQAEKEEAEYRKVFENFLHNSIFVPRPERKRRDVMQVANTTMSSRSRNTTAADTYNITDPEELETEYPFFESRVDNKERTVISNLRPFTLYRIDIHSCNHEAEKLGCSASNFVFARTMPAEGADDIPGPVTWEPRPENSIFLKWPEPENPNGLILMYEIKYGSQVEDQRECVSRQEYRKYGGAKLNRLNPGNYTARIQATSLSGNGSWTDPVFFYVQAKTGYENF
assay_name: SPR (BIACORE 3000), human IGF1R immobilized on CM5, 1:1 model
endpoint_name: pKd
The meaning of pKd here: minus log10 of the concentration in molar units.

// query Find the recorded pKd belonging to IGF1R-4_H3 (VHH, Humanized variant of IGF1R-4; expressed from pSJF2H in E. coli and purified by IMAC; any vector tag is not described) VHH: QVQLVESGGGLVQPGGSLRLSCAVSGGTVSPTAMGWFRQAPGKGLEFVGHITWSRGTTRYASSVKGRFTISRDNSKNTVYLQMNSLRAEDTAVYYCAASTFLRILPEESAYTYWGQGTLVTVSS and report it.
// result 9.41

// query Find the recorded pKd belonging to IGF1R-4_H5 (VHH, Humanized variant of IGF1R-4; expressed from pSJF2H in E. coli and purified by IMAC; any vector tag is not described) VHH: QVQLVESGGGLVQPGGSLRLSCAVSGGTVSPTAMGWFRQAPGKEREFVGHITWSRGTTRYASSVKGRFTISRDSSKNTVYLQMNSLRAEDTAVYYCAASTFLRILPEESAYTYWGQGTLVTVSS and report it.
// result 9.28

// query Find the recorded pKd belonging to IGF1R-4_H2 (VHH, Humanized variant of IGF1R-4; expressed from pSJF2H in E. coli and purified by IMAC; any vector tag is not described) VHH: QVQLVESGGGLVQPGGSLRLSCAVSGGTVSPTAMGWVRQAPGKGLEWVGHITWSRGTTRYASSVKGRFTISRDNSKNTVYLQMNSLRAEDTAVYYCAASTFLRILPEESAYTYWGQGTLVTVSS and report it.
// result 8.97

// query Find the recorded pKd belonging to IGF1R-4_H4 (VHH, Humanized variant of IGF1R-4; expressed from pSJF2H in E. coli and purified by IMAC; any vector tag is not described) VHH: QVQLVESGGGLVQPGGSLRLSCAVSGGTVSPTAMGWFRQAPGKGLEFVGHITWSRGTTRYASSVKGRFTISRDSSKNTVYLQMNSLRAEDTAVYYCAASTFLRILPEESAYTYWGQGTLVTVSS and report it.
// result 9.35

// query Find the recorded pKd belonging to IGF1R-4 VHH (VHH, Llama VHH, monomeric; Expressed from pSJF2H in TG1 E. coli and purified by IMAC; also called anti-IGF1R VHH IGF1R-4) VHH: QVKLEESGGGLVQAGGSLRLSCEVSGGTVSPTAMGWFRQAPGKEREFVGHITWSRGTTRVASSVKDRFTISRDSAKNTVYLQMNSLKSEDTAVYYCAASTFLRILPEESAYTYWGQGTQVTVSS and report it.
// result 9.49
